Test system: ATCC M. furfur 14521
Construct: ATCC 14521
Assay: microbe, parasite or virus in culture
Conditions: Malassezia furfur
MEASURED PROPERTY: log10 MIC (log10 of the value in µg/mL)

[
  {
    "MOLECULE": "CC(=O)Oc1ccccc1C(=O)NC(=[Se])Nc1ccc(S(N)(=O)=O)cc1",
    "TESTED TARGET": "ATCC M. furfur 14521",
    "MEASURED PROPERTY": "log10 MIC",
    "READOUT VALUE": 0.43
  },
  {
    "MOLECULE": "CCCCCCCc1ccc(C(=O)NC(=[Se])Nc2ccc(S(N)(=O)=O)cc2)cc1",
    "TESTED TARGET": "ATCC M. furfur 14521",
    "MEASURED PROPERTY": "log10 MIC",
    "READOUT VALUE": 1.03
  },
  {
    "MOLECULE": "O=C(NC(=[Se])Nc1ccc(S(=O)(=O)Nc2nccs2)cc1)c1ccc([N+](=O)[O-])cc1 [10d]",
    "TESTED TARGET": "ATCC M. furfur 14521",
    "MEASURED PROPERTY": "log10 MIC",
    "READOUT VALUE": 1.93
  },
  {
    "MOLECULE": "CCCCCCCc1ccc(C(=O)NC(=[Se])Nc2cc(S(N)(=O)=O)ccc2O)cc1 [11b]",
    "TESTED TARGET": "ATCC M. furfur 14521",
    "MEASURED PROPERTY": "log10 MIC",
    "READOUT VALUE": 0.72
  },
  {
    "MOLECULE": "NS(=O)(=O)c1ccc(NC(=[Se])NC(=O)c2ccc(I)cc2)cc1",
    "TESTED TARGET": "ATCC M. furfur 14521",
    "MEASURED PROPERTY": "log10 MIC",
    "READOUT VALUE": 0.78
  },
  {
    "MOLECULE": "NS(=O)(=O)c1ccc(NC(=[Se])Nc2cccc(C(F)(F)F)c2)cc1",
    "TESTED TARGET": "ATCC M. furfur 14521",
    "MEASURED PROPERTY": "log10 MIC",
    "READOUT VALUE": 2.33
  },
  {
    "MOLECULE": "O=C(NC(=[Se])Nc1ccc(S(=O)(=O)Nc2nccs2)cc1)c1cc(Br)cc(OC(F)(F)F)c1 [10b]",
    "TESTED TARGET": "ATCC M. furfur 14521",
    "MEASURED PROPERTY": "log10 MIC",
    "READOUT VALUE": 2.63
  },
  {
    "MOLECULE": "NS(=O)(=O)c1ccc(NC(=[Se])NC(=O)c2cc(Br)cc(OC(F)(F)F)c2)cc1",
    "TESTED TARGET": "ATCC M. furfur 14521",
    "MEASURED PROPERTY": "log10 MIC",
    "READOUT VALUE": 0.60
  },
  {
    "MOLECULE": "NS(=O)(=O)c1ccc(CCNC(=[Se])NC(=O)c2ccc3c(c2)OCO3)cc1",
    "TESTED TARGET": "ATCC M. furfur 14521",
    "MEASURED PROPERTY": "log10 MIC",
    "READOUT VALUE": 0.30
  },
  {
    "MOLECULE": "O=C(NC(=[Se])Nc1ccc(S(=O)(=O)Nc2nccs2)cc1)c1ccccc1 [10a]",
    "TESTED TARGET": "ATCC M. furfur 14521",
    "MEASURED PROPERTY": "log10 MIC",
    "READOUT VALUE": 0.90
  },
  {
    "MOLECULE": "C[C@@H]1[C@H](O)[C@@H](C)/C=C/C=C/C=C/C=C/C=C/C=C/C=C/[C@H](O[C@@H]2O[C@H](C)[C@@H](O)[C@H](N)[C@@H]2O)C[C@@H]2O[C@](O)(C[C@@H](O)C[C@@H](O)[C@H](O)CC[C@@H](O)C[C@@H](O)CC(=O)O[C@H]1C)C[C@H](O)[C@H]2C(=O)O",
    "TESTED TARGET": "ATCC M. furfur 14521",
    "MEASURED PROPERTY": "log10 MIC",
    "READOUT VALUE": 0.29
  },
  {
    "MOLECULE": "NS(=O)(=O)c1ccc(NC(=[Se])NC(=O)c2ccc([N+](=O)[O-])cc2)cc1",
    "TESTED TARGET": "ATCC M. furfur 14521",
    "MEASURED PROPERTY": "log10 MIC",
    "READOUT VALUE": 1.63
  },
  {
    "MOLECULE": "NS(=O)(=O)c1ccc(O)c(NC(=[Se])NC(=O)c2ccc(I)cc2)c1 [11d]",
    "TESTED TARGET": "ATCC M. furfur 14521",
    "MEASURED PROPERTY": "log10 MIC",
    "READOUT VALUE": 1.03
  },
  {
    "MOLECULE": "NS(=O)(=O)c1ccc(O)c(NC(=[Se])NC(=O)c2ccc(Br)cc2F)c1 [11g]",
    "TESTED TARGET": "ATCC M. furfur 14521",
    "MEASURED PROPERTY": "log10 MIC",
    "READOUT VALUE": 0.72
  },
  {
    "MOLECULE": "CCCCCCCc1ccc(C(=O)NC(=[Se])Nc2ccc(S(=O)(=O)Nc3nccs3)cc2)cc1 [10c]",
    "TESTED TARGET": "ATCC M. furfur 14521",
    "MEASURED PROPERTY": "log10 MIC",
    "READOUT VALUE": 0.60
  },
  {
    "MOLECULE": "NS(=O)(=O)c1cccc(NC(=[Se])NC(=O)c2cc(Br)cc(OC(F)(F)F)c2)c1",
    "TESTED TARGET": "ATCC M. furfur 14521",
    "MEASURED PROPERTY": "log10 MIC",
    "READOUT VALUE": 0.97
  },
  {
    "MOLECULE": "O=C(NC(=[Se])Nc1c(F)c(F)cc(F)c1F)c1ccccc1 [16d]",
    "TESTED TARGET": "ATCC M. furfur 14521",
    "MEASURED PROPERTY": "log10 MIC",
    "READOUT VALUE": 0.43
  },
  {
    "MOLECULE": "NS(=O)(=O)c1ccc(NC(=[Se])NC(=O)c2ccc3c(c2)OCO3)cc1",
    "TESTED TARGET": "ATCC M. furfur 14521",
    "MEASURED PROPERTY": "log10 MIC",
    "READOUT VALUE": -0.30
  },
  {
    "MOLECULE": "O=C(NC(=[Se])Nc1ccccc1)c1ccccc1 [16a]",
    "TESTED TARGET": "ATCC M. furfur 14521",
    "MEASURED PROPERTY": "log10 MIC",
    "READOUT VALUE": -0.10
  },
  {
    "MOLECULE": "O=C(NC(=[Se])Nc1ccc(S(=O)(=O)Nc2nccs2)cc1)c1ccc(I)cc1 [10f]",
    "TESTED TARGET": "ATCC M. furfur 14521",
    "MEASURED PROPERTY": "log10 MIC",
    "READOUT VALUE": 0.72
  },
  {
    "MOLECULE": "CCCCCCCc1ccc(C(=O)NC(=[Se])Nc2cccc(S(N)(=O)=O)c2)cc1",
    "TESTED TARGET": "ATCC M. furfur 14521",
    "MEASURED PROPERTY": "log10 MIC",
    "READOUT VALUE": 0.83
  },
  {
    "MOLECULE": "O=C(NC(=[Se])Nc1ccccc1F)c1ccccc1 [16c]",
    "TESTED TARGET": "ATCC M. furfur 14521",
    "MEASURED PROPERTY": "log10 MIC",
    "READOUT VALUE": 0.30
  },
  {
    "MOLECULE": "Cc1cccc(C(=O)NC(=[Se])Nc2cc(S(N)(=O)=O)ccc2O)c1 [11j]",
    "TESTED TARGET": "ATCC M. furfur 14521",
    "MEASURED PROPERTY": "log10 MIC",
    "READOUT VALUE": 1.20
  },
  {
    "MOLECULE": "CC(=O)N1CCN(c2ccc(OC[C@@H]3CO[C@@](Cn4ccnc4)(c4ccc(Cl)cc4Cl)O3)cc2)CC1 (racemic)",
    "TESTED TARGET": "ATCC M. furfur 14521",
    "MEASURED PROPERTY": "log10 MIC",
    "READOUT VALUE": -0.60
  },
  {
    "MOLECULE": "NS(=O)(=O)c1cccc(NC(=[Se])NC(=O)c2ccccc2)c1",
    "TESTED TARGET": "ATCC M. furfur 14521",
    "MEASURED PROPERTY": "log10 MIC",
    "READOUT VALUE": 1.33
  },
  {
    "MOLECULE": "O=C(NC(=[Se])Nc1ccc(S(=O)(=O)Nc2nccs2)cc1)c1ccc(Cl)cc1 [10g]",
    "TESTED TARGET": "ATCC M. furfur 14521",
    "MEASURED PROPERTY": "log10 MIC",
    "READOUT VALUE": 1.81
  },
  {
    "MOLECULE": "NS(=O)(=O)c1ccc(NC(=[Se])Nc2ccccc2)cc1",
    "TESTED TARGET": "ATCC M. furfur 14521",
    "MEASURED PROPERTY": "log10 MIC",
    "READOUT VALUE": -0.30
  },
  {
    "MOLECULE": "COc1ccccc1NC(=[Se])NCCc1ccc(S(N)(=O)=O)cc1",
    "TESTED TARGET": "ATCC M. furfur 14521",
    "MEASURED PROPERTY": "log10 MIC",
    "READOUT VALUE": 0.11
  },
  {
    "MOLECULE": "NS(=O)(=O)c1cccc(NC(=[Se])NC(=O)c2ccc(F)cc2)c1",
    "TESTED TARGET": "ATCC M. furfur 14521",
    "MEASURED PROPERTY": "log10 MIC",
    "READOUT VALUE": 2.41
  },
  {
    "MOLECULE": "NS(=O)(=O)c1cccc(NC(=[Se])Nc2ccccc2)c1",
    "TESTED TARGET": "ATCC M. furfur 14521",
    "MEASURED PROPERTY": "log10 MIC",
    "READOUT VALUE": 2.03
  }
]
